Values were extracted from patent US8629102B2.

Target: GPR40 of human origin (Homo sapiens)
Sequence (O14842 whole entry): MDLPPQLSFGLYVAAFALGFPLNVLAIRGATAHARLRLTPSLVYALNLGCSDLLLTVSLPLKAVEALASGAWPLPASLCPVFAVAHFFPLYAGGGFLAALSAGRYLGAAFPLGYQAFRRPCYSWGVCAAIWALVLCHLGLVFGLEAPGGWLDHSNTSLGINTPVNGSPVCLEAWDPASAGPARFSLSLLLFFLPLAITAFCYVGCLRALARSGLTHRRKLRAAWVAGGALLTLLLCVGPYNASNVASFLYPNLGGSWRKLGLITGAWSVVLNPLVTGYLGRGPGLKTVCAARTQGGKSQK
Experiment: Agonist action on GPR40 of human origin (intracellular Ca2+ change)
Settings: CHO cell strain stably expressing GPR40 of human origin; change in Ca2+ concentration, fluorescent calcium indicator
pEC50: −log10 of the molar value.
metricName: pEC50

// solved cases for pEC50 follow
- molecule: "COc1ccc(F)cc1-c1cccc2c1CC[C@H]2Oc1ccc(-c2cc(O)n[s+]2[O-])cc1 (some centres unmarked) [Example 56]"
  result: "> 6.52"
- molecule: "O=C(c1ccc(Oc2cccc3c2CC[C@H]3Oc2ccc(-c3cc(O)n[s+]3[O-])cc2)cc1)N1CCCC1 (some centres unmarked) [Example 147]"
  result: "> 6.52"
- molecule: "Cc1ccc(F)cc1-c1cccc2c1CC[C@H]2Oc1ccc(-c2cc(O)n[s+]2[O-])cc1 (some centres unmarked) [Example 41]"
  result: "> 6.52"
- molecule: "Cc1cc(OCCCS(C)(=O)=O)cc(C)c1-c1cccc(CNc2ccc(-c3cc(O)n[s+]3[O-])cc2)c1 (centres unmarked) [Example 2]"
  result: "> 6.52"
- molecule: "CCOc1ccc(-c2cccc3c2CC[C@H]3Oc2ccc(-c3cc(O)n[s+]3[O-])cc2)cc1 (some centres unmarked) [Example 7]"
  result: "5.52 to 6.52"

Quick batch: pEC50 for everything below.
1. N#Cc1ccc(-c2cccc3c2CC[C@H]3Oc2ccc(-c3cc(O)n[s+]3[O-])cc2)cc1 (some centres unmarked) [Example 156]
2. [O-][s+]1nc(O)cc1-c1ccc(O[C@@H]2CCc3c(-c4ccccc4Cl)cccc32)cc1 (some centres unmarked) [Example 10]
3. COc1ncc(Oc2cccc3c2CC[C@H]3Oc2ccc(-c3cc(O)n[s+]3[O-])cc2)cn1 (some centres unmarked) [Example 110]

["> 6.52", "> 6.52", "> 6.52"]

Quick batch: pEC50 for everything below.
1. Cc1ccccc1Oc1cccc2c1CC[C@H]2Oc1ccc(-c2cc(O)n[s+]2[O-])cc1 (some centres unmarked) [Example 95]
2. Cc1cncc(-c2cccc3c2CC[C@H]3Oc2ccc(-c3cc(O)n[s+]3[O-])cc2)c1 (some centres unmarked) [Example 72]
3. CCOc1ccc(F)cc1-c1cccc2c1CC[C@H]2Oc1ccc(-c2cc(O)n[s+]2[O-])cc1 (some centres unmarked) [Example 4]
4. [O-][s+]1nc(O)cc1-c1ccc(O[C@@H]2CCc3c(-c4ccc(Cl)cc4)cccc32)cc1 (some centres unmarked) [Example 6]
5. CCOc1ccc(-c2cccc3c2CC[C@H]3Oc2ccc(-c3cc(O)n[s+]3[O-])cc2)cc1Cl (some centres unmarked) [Example 60]
6. Cc1ccc(-c2cccc3c2CC[C@H]3Oc2ccc(-c3cc(O)n[s+]3[O-])cc2)c(Cl)c1 (some centres unmarked) [Example 43]
7. [O-][s+]1nc(O)cc1-c1ccc(OC2CCc3cc(Br)ccc32)cc1 (centres unmarked) [Example 1]
8. [O-][s+]1nc(O)cc1-c1ccc(O[C@@H]2CCc3c2cccc3N2CCCc3ccccc32)cc1 (some centres unmarked) [Example 158]

1. > 6.52
2. > 6.52
3. > 6.52
4. 5.52 to 6.52
5. > 6.52
6. > 6.52
7. > 6.52
8. > 6.52

* * *

Target: GPR40 of human origin (Homo sapiens)
Construct: expressed in transfected cells
Assay: Agonist action on GPR40 of human origin (intracellular Ca2+ change)
Assay type: cell-based
Conditions: CHO cell strain stably expressing GPR40 of human origin; change in Ca2+ concentration, fluorescent calcium indicator
Kindly supply the reported EC50 values for the records listed here.

- molecule: "N#Cc1ccc(Oc2cccc3c2OCC3Oc2ccc(-c3cc(O)n[s+]3[O-])cc2)cc1 (stereo not drawn) [Example 138]"
  EC50: "< 300 nM"
- molecule: "NC(=O)c1cccc(Oc2cccc3c2CC[C@H]3Oc2ccc(-c3cc(O)n[s+]3[O-])cc2)c1 (stereo partly drawn)"
  EC50: "< 300 nM"
- molecule: "COc1ccc(-c2cccc3c2CC[C@H]3Oc2ccc(-c3cc(O)n[s+]3[O-])cc2)c(C)c1 (stereo partly drawn)"
  EC50: "< 300 nM"
- molecule: "CNC(=O)c1ccc(Oc2cccc3c2CC[C@H]3Oc2ccc(-c3cc(O)n[s+]3[O-])cc2)cc1 (stereo partly drawn)"
  EC50: "< 300 nM"
- molecule: "COc1cc(C)c(Oc2cccc3c2CC[C@H]3Oc2ccc(-c3cc(O)n[s+]3[O-])cc2)cn1 (stereo partly drawn)"
  EC50: "< 300 nM"

Quick batch: EC50 for everything below.
1. [O-][s+]1nc(O)cc1-c1ccc(O[C@@H]2CCc3c(-c4ccc(F)cc4)cccc32)cc1 (stereo partly drawn)
2. [O-][s+]1nc(O)cc1-c1ccc(O[C@@H]2CCc3c(-c4cccc(C(F)(F)F)c4)cccc32)cc1 (stereo partly drawn)

1. < 300 nM
2. 300 to 3000 nM

Quick batch: EC50 for everything below.
1. COc1cccnc1Oc1cccc2c1CC[C@H]2Oc1ccc(-c2cc(O)n[s+]2[O-])cc1 (stereo partly drawn)
2. Cc1cccc(C)c1N1CCC(COc2ccc(-c3cc(O)n[s+]3[O-])cc2)C1 (stereo not drawn)
3. CC(C)c1ccc(-c2cccc3c2CC[C@H]3Oc2ccc(-c3cc(O)n[s+]3[O-])cc2)c(Cl)n1 (stereo partly drawn)
4. [O-][s+]1nc(O)cc1-c1ccc(O[C@@H]2CCc3c(-c4cc(F)ccc4OCc4ccccc4)cccc32)cc1 (stereo partly drawn)
5. Cc1cc(OCCC(C)(C)O)cc(C)c1-c1cccc2c1OCC2Oc1ccc(-c2cc(O)n[s+]2[O-])cc1 (single isomer, unassigned) [Example 148-a]
6. COc1ccc(Oc2cccc3c2CC[C@H]3Oc2ccc(-c3cc(O)n[s+]3[O-])cc2)c(C)n1 (stereo partly drawn)
7. COc1ccc(C)cc1-c1cccc2c1CC[C@H]2Oc1ccc(-c2cc(O)n[s+]2[O-])cc1 (stereo partly drawn)
8. C=Cc1ccc(-c2cccc3c2CC[C@H]3Oc2ccc(-c3cc(O)n[s+]3[O-])cc2)cc1 (stereo partly drawn)

1. 300 to 3000 nM
2. 300 to 3000 nM
3. < 300 nM
4. 300 to 3000 nM
5. < 300 nM
6. < 300 nM
7. < 300 nM
8. 300 to 3000 nM
